Assay: Pharmacokinetic experiment on SD rats (iv and intragastric)
Assay type: in vivo
Details: Sprague-Dawley, rat, plasma, iv, 1.00 mg/kg
quantity-kind: AUC (ng·h/mL)

INSERT INTO assay_data (compound, observed) VALUES
  ('CN(C)c1cc2nn([C@H]3CC[C@H](CN4CC[C@@H](n5cc6cc(C7CCC(=O)NC7=O)c(F)cc6n5)[C@@H](F)C4)CC3)cc2cc1NC(=O)c1cnn2cccnc12 (stereo partly shown)', 1170),
  ('CN(C)c1cc2nn([C@H]3CC[C@H](CN4C[C@@H](F)[C@H](n5cc6cc(C7CCC(=O)NC7=O)ccc6n5)C4)CC3)cc2cc1NC(=O)c1cnn2cccnc12 (stereo partly shown)', 2010),
  ('CN(C)c1cc2nn([C@H]3CC[C@H](CN4C[C@@H](F)[C@H](n5cc6cc(C7CCC(=O)NC7=O)c(F)cc6n5)C4)CC3)cc2cc1NC(=O)c1cnn2cccnc12 (stereo partly shown)', 2910),
  ('CN(C)c1cc2nn([C@H]3CC[C@H](CN4C[C@H](F)[C@@H](n5cc6cc(C7CCC(=O)NC7=O)c(F)cc6n5)C4)CC3)cc2cc1NC(=O)c1cnn2cccnc12 (stereo partly shown)', 2280);

[P] CN(C)c1cc2nn([C@H]3CC[C@H](CN4CCC(n5cc6c(F)cc(N7CCC(=O)NC7=O)cc6n5)CC4)CC3)cc2cc1NC(=O)c1cnn2cccnc12
[Q] CN(C)c1cc2nn([C@H]3CC[C@H](CN4C[C@@H](n5cc6cc(C7CCC(=O)NC7=O)c(F)cc6n5)[C@@H](F)C4)CC3)cc2cc1NC(=O)c1cnn2cccnc12 (stereo partly shown)
[R] CN(C)c1cc2nn([C@H]3CC[C@H](CN4C[C@@H](F)[C@@H](n5cc6cc(C7CCC(=O)NC7=O)c(F)cc6n5)C4)CC3)cc2cc1NC(=O)c1cnn2cccnc12 (stereo partly shown)
Problem: Please list these compounds in decreasing order of AUC. List the labels according to the requested ordering.
Solution: Q, R, P

###

Reported IC50 values for the following compounds.
Tested on: R848-induced IL-6 secretion in human peripheral blood mononuclear cells (PBMCs)
Test: Inhibition of R848-induced IL-6 secretion in human PBMCs (IL-6 ELISA)
Format: cell-based
Settings: PBMC, R848 2.5 μg/mL, 20 h pre-incubation, 24 h stimulation
Write the answer as a number in nM, unit excluded.

# example entries with known answers
INSERT INTO assay_data (compound, quantity_kind, observed) VALUES
  ('CN(C)c1cc2nn([C@@H]3CC[C@@H](CN4CC[C@H](n5cc6c(F)cc(N7CCC(=O)NC7=O)cc6n5)C4)OC3)cc2cc1NC(=O)c1cnn2cccnc12', 'IC50', 15.5),
  ('CN(C)c1cc2nc([C@H]3CC[C@H](CN4CCC(n5cc6c(F)cc(N7CCC(=O)NC7=O)cc6n5)CC4)CC3)cn2nc1NC(=O)c1cnn2cccnc12', 'IC50', 14.7),
  ('CN(C)c1cc2nn([C@H]3CC[C@H](CN4CC[C@@H](n5cc6cc(C7CCC(=O)NC7=O)ccc6n5)[C@H](F)C4)CC3)cc2cc1NC(=O)c1cnn2cccnc12 (some centres unmarked)', 'IC50', 4.3),
  ('CN(C)c1cc2nn([C@H]3CC[C@H](CN4CC[C@@H](n5cc6c(F)cc(C7CCC(=O)NC7=O)cc6n5)C4)CC3)cc2cc1NC(=O)c1cnn2cccnc12 (some centres unmarked)', 'IC50', 6.08);

For the next question, use this compound.
Problem: Could you share which IC50 value was measured for CN(C)c1cc2nn([C@H]3CC[C@H](CN4C[C@@H](n5cc6cc(C7CCC(=O)NC7=O)c(F)cc6n5)[C@@H](F)C4)CC3)cc2cc1NC(=O)c1cnn2cccnc12 (some centres unmarked) ?
Solution: 9.08
